system: Jurkat cells; experiment: Inhibition of calcium entry into Jurkat cells (indo-1 fluorescence); format: cell-based, human; details: Homo sapiens; Jurkat; NE = no effect at highest concentration of drug tested; read-out: Ca2+: IC50 for inhibition of calcium entry, Jurkat
Measured IC50, listed per entry for reference.
Could you give me the number in µM? Just the number is fine.

Recorded IC50, per entry:
In: // lookup IC50 for COc1ccc(CC[N+](C)(C)CCOC(c2ccccc2)c2ccc(Cl)cc2)cc1 (stereo not drawn) [Compound 3.16]
Out: 30

In: Which IC50 reading was recorded for the compound COc1ccc(CNCCOC(c2ccccc2)c2ccc(Cl)cc2)cc1 (stereo not drawn) [Compound 3.9] ?
Out: 3

In: # lookup: IC50 of COc1ccc(CCCCNCCC(c2ccccc2)c2ccc(Cl)cc2)cc1 (stereo not drawn) [Compound 3.21]
Out: 30

In: Suppose we examine the compound COc1ccc(CNCCCCCC(c2ccccc2)c2ccc(Cl)cc2)cc1 (stereo not drawn) [Compound 3.1] ; what IC50 value has been reported?
Out: 10

In: Consider the compound COc1ccc(CCNCCOC(c2ccccc2)c2ccc(Cl)cc2)cc1 (stereo not drawn) [Compound 3.8] and give its measured IC50.
Out: 10

Shifting focus to the compound that follows.
In: Quick one: IC50 for COc1ccc(NCCCCCCC(c2ccccc2)c2ccc(Cl)cc2)cc1 (stereo not drawn) [Compound 3.17] ?
Out: 30

----------
Listed here are compounds together with their documented pIC50.
tested on: MDA-435 cells; assay: Inhibition of proliferation of MDA-435 cells; format: cell-based; conditions: MDA435, NE = no effect at highest concentration of drug tested, read-out: prolif: IC50 for inhibition of proliferation, MDA-435
To interpret pIC50, take it as minus log10 of a concentration measured in moles per litre.

In: What measured pIC50 goes with COc1ccc(CNCCCCCC(c2ccccc2)c2ccc(Cl)cc2)cc1 (stereo not drawn) ?
Out: 4.92

***
In: // lookup pIC50 for COc1ccc(CCCCCNCC(c2ccccc2)c2ccc(Cl)cc2)cc1 (stereo not drawn)
Out: 4.40

----------
# IC50 annotations
system: MDA-361 cells; experiment: Inhibition of calcium entry into MDA-361 cells; type: cell-based; conditions: MDA361, NE = no effect at highest concentration of drug tested, read-out: Ca2+: IC50 for inhibition of calcium entry, MDA-361

// known answers, use as guide
In: // query IC50 value for entry COc1ccc(C(O)CCCCOC(c2ccccc2)c2ccc(Cl)cc2)cc1 (centres unmarked) [Compound 3.5]
Out: 25 µM

In: GET /values?readout=IC50&item= COc1ccc(CNCCOC(c2ccccc2)c2ccc(Cl)cc2)cc1 (centres unmarked) [Compound 3.9]
Out: 5 µM

In: Look up IC50 for this compound: COc1ccc(CCNCCOC(c2ccccc2)c2ccc(Cl)cc2)cc1 (centres unmarked) [Compound 3.8]
Out: 20 µM

Others:
In: // IC50 lookup, key: COc1ccc(CCCNCCOC(c2ccccc2)c2ccc(Cl)cc2)cc1 (centres unmarked) [Compound 3.4]
Out: 10 µM

In: Entry under review: COc1ccc(CNCCCCCC(c2ccccc2)c2ccc(Cl)cc2)cc1 (centres unmarked) [Compound 3.1] . Reported IC50?
Out: 10 µM

In: Request the reported IC50 associated with COc1ccc(CNCc2ccccc2COC(c2ccccc2)c2ccc(Cl)cc2)cc1 (centres unmarked) [Compound 3.11]
Out: 10 µM

In: Could you tell me which IC50 is on file for COc1ccc(C(=O)CCCCOC(c2ccccc2)c2ccc(Cl)cc2)cc1 (centres unmarked) [Compound 3.6] ?
Out: > 100 µM

In: Reported IC50, compound COc1ccc(CNCCCCOC(c2ccccc2)c2ccc(Cl)cc2)cc1 (centres unmarked) [Compound 3.2] : ____
Out: 6 µM

----------
Below is a list of entries, each paired with its recorded IC50 value.
system: MDA-435 cells; assay: Inhibition of calcium entry into MDA-435 cells; format: cell-based; conditions: MDA435, NE = no effect at highest concentration of drug tested, read-out: Ca2+: IC50 for inhibition of calcium entry, MDA-435
All answers are understood in µM, so give the number only.

In the examples that follow, each entry is paired with its recorded IC50.
In: Field: IC50 (MDA-435 cells). Entry: COc1ccc(NCCCCCCC(c2ccccc2)c2ccc(Cl)cc2)cc1 (stereo not drawn)
Out: 30

In: Query for MDA-435 cells: what IC50 does the record show for COc1ccc(CCNCCCCC(c2ccccc2)c2ccc(Cl)cc2)cc1 (stereo not drawn) ?
Out: 10

In: Could you share what IC50 was measured for COc1ccc(C(O)CCCCOC(c2ccccc2)c2ccc(Cl)cc2)cc1 (stereo not drawn) , tested on MDA-435 cells?
Out: 10

Next:
In: Which measured IC50 belongs to COc1ccc(CCNCCOC(c2ccccc2)c2ccc(Cl)cc2)cc1 (stereo not drawn) , tested on MDA-435 cells?
Out: 10

In: Lab note: need IC50 for COc1ccc(CNCCCCOC(c2ccccc2)c2ccc(Cl)cc2)cc1 (stereo not drawn) on MDA-435 cells, anyone have it?
Out: 10

In: Param readout= IC50; system= MDA-435 cells; entry= COc1ccc(CNCCCCCC(c2ccccc2)c2ccc(Cl)cc2)cc1 (stereo not drawn) ; returns value.
Out: 25

In: Please provide the recorded IC50 for COc1ccc(CNCCOC(c2ccccc2)c2ccc(Cl)cc2)cc1 (stereo not drawn) , tested on MDA-435 cells.
Out: 10

In: Lab note: need IC50 with MDA-435 cells for entry COc1ccc(CCCNCCOC(c2ccccc2)c2ccc(Cl)cc2)cc1 (stereo not drawn) , please look it up.
Out: 15

----------
system: Jurkat cells; assay: Inhibition of proliferation of Jurkat cells; format: cell-based, human; settings: Homo sapiens; Jurkat; NE = no effect at highest concentration of drug tested; read-out: prolif: IC50 for inhibition of proliferation, Jurkat
experimental.endpoint: IC50

In: Param readout = IC50; param system = Jurkat cells; param query = COc1ccc(C(=O)CCCCOC(c2ccccc2)c2ccc(Cl)cc2)cc1 (stereo not drawn) ; response: value
Out: > 100 µM

More entries:
In: For Jurkat cells, provide IC50 of COc1ccc(COCCOC(c2ccccc2)c2ccc(Cl)cc2)cc1 (stereo not drawn) please.
Out: ~100 µM

In: Observed IC50 on Jurkat cells for COc1ccc(CNCCCCCC(c2ccccc2)c2ccc(Cl)cc2)cc1 (stereo not drawn) , please.
Out: 4 µM

In: Reported IC50 for Jurkat cells, given COc1ccc(CCNc2ccccc2COC(c2ccccc2)c2ccc(Cl)cc2)cc1 (stereo not drawn) ?
Out: > 300 µM

In: Form field: IC50 recorded for COc1ccc(CCCCCCNC(c2ccccc2)c2ccc(Cl)cc2)cc1 (stereo not drawn) with Jurkat cells (enter value)
Out: ~30 µM

In: Request: IC50, test system Jurkat cells, entry COc1ccc(NCCCCCCC(c2ccccc2)c2ccc(Cl)cc2)cc1 (stereo not drawn)
Out: > 100 µM

----------
tested on: MDA-435 cells; assay: Inhibition of proliferation of MDA-435 cells; assay type: cell-based; conditions: MDA435, NE = no effect at highest concentration of drug tested, read-out: prolif: IC50 for inhibition of proliferation, MDA-435
experimental.endpoint: IC50 (µM)
Express your answer in µM, writing the number without its unit.

A selection of reference data follows.
In: // query IC50 value for entry COc1ccc(CNCCOC(c2ccccc2)c2ccc(Cl)cc2)cc1 (stereo not shown)
Out: 12

In: Find the recorded IC50 belonging to COc1ccc(CCCCNCCC(c2ccccc2)c2ccc(Cl)cc2)cc1 (stereo not shown) and report it.
Out: 9

In: Can you share its IC50? I mean this compound: COc1ccc(CC[N+](C)(C)CCOC(c2ccccc2)c2ccc(Cl)cc2)cc1 (stereo not shown)
Out: 50

Others:
In: Report IC50 for COc1ccc(CCNCCCCC(c2ccccc2)c2ccc(Cl)cc2)cc1 (stereo not shown) please.
Out: 11

----------
system: MDA-435 cells; experiment: Inhibition of proliferation of MDA-435 cells; type: cell-based; conditions: MDA435, NE = no effect at highest concentration of drug tested, read-out: prolif: IC50 for inhibition of proliferation, MDA-435
pIC50: −log10 of the molar value.
experimental.endpoint: pIC50

In: Fill in: pIC50 of COc1ccc(CCCCCCNC(c2ccccc2)c2ccc(Cl)cc2)cc1 (stereo not drawn) is ___
Out: < 4.00

Continuing:
In: Find the recorded pIC50 belonging to COc1ccc(CCCNCCCC(c2ccccc2)c2ccc(Cl)cc2)cc1 (stereo not drawn) and report it.
Out: < 4.00

In: May I ask what pIC50 has been recorded for COc1ccc(COCCOC(c2ccccc2)c2ccc(Cl)cc2)cc1 (stereo not drawn) ?
Out: < 4.00
